- Target System: UniProt Q9UNA0
- Condition Parameters: read-out: hADAMTS-5 potency IC50
Field: IC50. Provide a value for each of the molecules that follow.
// units = nM; emit number, no label

Please indicate IC50 recorded for CC(CC1(CN2CCOCC2)NC(=O)NC1=O)C(=O)N1CCN(c2cc(Cl)cc(Cl)c2)[C@@H](C)C1 (stereo partly shown)
114

Specify IC50 for CC(CC1(C)NC(=O)NC1=O)C(=O)N1CCN(c2ccc(F)c(F)c2)CC1 (stereo not shown) and stop.
48

Determine its reported IC50: CC(CC1(C2CNC2)NC(=O)NC1=O)C(=O)N1CCN(c2cc(Cl)cc(Cl)c2)CC1 (stereo not shown)
102

Using the record for CC(CC1(C2CN(C(=O)OC(C)(C)C)C2)NC(=O)NC1=O)C(=O)N1CCN(c2ccc(F)c(F)c2)CC1 (stereo not shown) , state its measured IC50.
28

Item C[C@H]1CN(C(=O)CC[C@@]2(C3CC3)NC(=O)NC2=O)CCN1c1cccc(F)c1 : provide IC50
46

Please indicate IC50 recorded for CC(CC1(C2CC2)NC(=O)NC1=O)C(=O)N1CCN(c2ccc(F)cc2)[C@@H](C)C1 (stereo partly shown)
22

---

Kindly state IC50 for each of the entries shown.
- Target System: human ADAMTS-5 (Homo sapiens (Human))
- Condition Parameters: read-out: hADAMTS-5 potency IC50
Use nM as the unit, but write only the number.

Provide one value: measured IC50 of Cc1cc(CC(CC2(C)NC(=O)NC2=O)C(=O)N2CCN(c3cc(Cl)cc(Cl)c3)CC2)n(C)n1 (stereo not shown)
141

Return IC50 (reported value) for this compound: NCC1(CCC(=O)N2CCN(c3cc(Cl)cc(Cl)c3)CC2)NC(=O)NC1=O (stereo not shown)
177

Write down IC50 measured for item C[C@H]1CN(C(=O)CCC2(C3CC3)NC(=O)NC2=O)CCN1c1cnnc(Cl)c1 (stereo partly shown)
1530

Annotate the compound COCC1(CC(C)C(=O)N2CCN(c3cc(F)ccc3C)[C@@H](C)C2)NC(=O)NC1=O (stereo partly shown) with its measured IC50.
109

Look up and report measured IC50 for this entry: CC(CC1(CN2CCC(F)(F)C2)NC(=O)NC1=O)C(=O)N1CCN(c2ccc(F)c(Cl)c2)[C@@H](C)C1 (stereo partly shown)
35

Retrieve IC50 measured for C[C@@H]1CN(C(=O)CC[C@@]2(C3CC3)NC(=O)NC2=O)CCN1c1cc(F)cc(F)c1 and print it.
168

---

- Target System: human ADAMTS-5 (Homo sapiens (Human), UniProt Q9UNA0)
- Sequence (Q9UNA0 262-930): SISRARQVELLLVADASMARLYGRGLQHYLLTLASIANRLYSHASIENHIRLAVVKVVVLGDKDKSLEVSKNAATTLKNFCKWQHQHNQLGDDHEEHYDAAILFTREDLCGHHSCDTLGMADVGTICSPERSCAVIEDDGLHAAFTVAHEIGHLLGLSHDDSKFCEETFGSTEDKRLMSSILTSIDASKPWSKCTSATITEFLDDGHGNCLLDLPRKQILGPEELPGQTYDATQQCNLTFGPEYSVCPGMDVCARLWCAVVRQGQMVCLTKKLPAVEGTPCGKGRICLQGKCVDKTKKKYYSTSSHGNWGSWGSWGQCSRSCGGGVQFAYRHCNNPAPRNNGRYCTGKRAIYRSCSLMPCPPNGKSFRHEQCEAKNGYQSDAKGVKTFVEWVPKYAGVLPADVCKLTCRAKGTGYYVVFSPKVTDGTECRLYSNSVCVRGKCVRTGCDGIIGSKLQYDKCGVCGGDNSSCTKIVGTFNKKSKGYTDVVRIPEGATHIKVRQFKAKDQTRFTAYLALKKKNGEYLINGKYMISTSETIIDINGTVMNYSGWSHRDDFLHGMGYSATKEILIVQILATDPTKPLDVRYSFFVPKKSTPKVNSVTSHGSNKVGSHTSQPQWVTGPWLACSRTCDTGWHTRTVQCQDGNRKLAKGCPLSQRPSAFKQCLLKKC
- Condition Parameters: read-out: hADAMTS-5 potency IC50
pIC50: −log10 of the molar value.
Quick rule for you: pIC50 at 7 or higher means T, lower means F.

Confirm if pIC50 reported for the molecule COCC1(CC(C)C(=O)N2CCN(c3cc(F)cc(F)c3)[C@@H](C)C2)NC(=O)NC1=O (stereo partly shown) is 7 or above.
T

Decide: is the reported value of pIC50 for Cc1noc(C)c1-c1cccc(N2CCN(C(=O)CCC3(C4CC4)NC(=O)NC3=O)C[C@@H]2C)c1 (stereo partly shown) equal to or greater than 7?
F

Evaluate COc1ccc(C2(CCC(=O)N3CCN(c4cc(F)cc(F)c4)[C@@H](C)C3)NC(=O)NC2=O)cn1 (stereo partly shown) : pIC50 at minimum 7?
T

Tell me whether pIC50 is at least 7 here: Cc1cc(N2CCN(C(=O)CCC3(C4CC4)NC(=O)NC3=O)C[C@@H]2C)ccc1F (stereo partly shown)
F

Is pIC50 for O=C1NC(=O)[C@](CCC(=O)N2CCN(c3cc(Cl)cc(Cl)c3)CC2)(C2CC2)N1 at or above 7?
T
